// provenance: ChEMBL document CHEMBL1921798

Target: Phosphatidylinositol 4,5-bisphosphate 3-kinase catalytic subunit delta isoform (Homo sapiens)
Sequence (O00329 whole entry): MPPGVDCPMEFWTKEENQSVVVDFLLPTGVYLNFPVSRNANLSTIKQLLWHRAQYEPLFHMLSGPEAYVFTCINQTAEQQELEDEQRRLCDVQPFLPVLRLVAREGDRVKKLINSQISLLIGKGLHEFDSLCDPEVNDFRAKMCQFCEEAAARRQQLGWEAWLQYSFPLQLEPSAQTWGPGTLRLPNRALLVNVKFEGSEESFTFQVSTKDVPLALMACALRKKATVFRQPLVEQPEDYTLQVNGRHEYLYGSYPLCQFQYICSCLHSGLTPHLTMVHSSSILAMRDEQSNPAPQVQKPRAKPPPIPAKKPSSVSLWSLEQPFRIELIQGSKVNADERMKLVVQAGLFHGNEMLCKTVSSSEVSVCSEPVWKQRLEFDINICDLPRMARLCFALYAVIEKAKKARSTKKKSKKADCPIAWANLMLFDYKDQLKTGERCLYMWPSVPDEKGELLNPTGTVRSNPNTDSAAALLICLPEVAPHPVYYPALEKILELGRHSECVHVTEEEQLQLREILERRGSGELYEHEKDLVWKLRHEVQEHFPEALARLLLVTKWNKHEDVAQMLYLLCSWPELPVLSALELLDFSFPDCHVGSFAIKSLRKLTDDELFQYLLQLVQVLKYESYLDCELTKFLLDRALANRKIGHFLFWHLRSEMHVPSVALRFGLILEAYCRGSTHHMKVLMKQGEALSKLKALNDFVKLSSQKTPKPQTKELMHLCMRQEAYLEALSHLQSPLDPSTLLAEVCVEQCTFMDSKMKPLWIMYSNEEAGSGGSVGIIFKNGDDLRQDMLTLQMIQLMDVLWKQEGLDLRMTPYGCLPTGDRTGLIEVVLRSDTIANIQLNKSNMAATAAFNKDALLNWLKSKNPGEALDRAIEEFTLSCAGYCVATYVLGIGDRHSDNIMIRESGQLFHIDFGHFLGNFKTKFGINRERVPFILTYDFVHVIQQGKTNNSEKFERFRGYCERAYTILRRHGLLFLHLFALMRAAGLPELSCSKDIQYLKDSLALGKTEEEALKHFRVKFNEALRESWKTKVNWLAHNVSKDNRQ
Value Type: IC50 (nM)

                               input_smiles  observed_result
0  Cc1c(CN2CCN(C(=O)CO)CC2)sc2c(N3CCOCC3)nc(-c3cnc(N)nc3)nc12              5.6
1  Cc1c(CN2CCN(C(=O)CN)CC2)sc2c(N3CCOCC3)nc(-c3cnc(N)nc3)nc12              4.3
2  Cc1c(CN2CCN(C(=O)C(C)(C)N)CC2)sc2c(N3CCOCC3)nc(-c3cnc(N)nc3)nc12              1.5
3  Cc1c(CN2CCN(C(=O)C(C)(C)O)CC2)sc2c(N3CCOCC3)nc(-c3cnc(N)nc3)nc12                5
4  Cc1c(CN2CCN(C(=O)[C@H](C)N)CC2)sc2c(N3CCOCC3)nc(-c3cnc(N)nc3)nc12              2.4

---

Test: in vivo
Conditions: beagle, dog, plasma, iv, 1 mg/kg
Collected clearance values appear next to each entry.
Value Type: clearance (mL/min/kg)

>>> print(df.to_string())
                               input_smiles  value_type  observed_result
0  CS(=O)(=O)N1CCN(Cc2cc3nc(-c4cnc(N)nc4)nc(N4CCOCC4)c3s2)CC1.Cl   clearance               22
1  Cc1c(CN2CCN(S(C)(=O)=O)CC2)sc2c(N3CCOCC3)nc(-c3cnc(N)nc3)nc12.Cl   clearance                5

---

Collected solubility thermodynamic values appear next to each entry.
Test: physchem
Conditions: buffer, pH 6.5
Description: Thermodynamic solubility of the compound at pH 6.5
Value Type: solubility thermodynamic (µg/mL)

>>> print(df.to_string())
                               input_smiles                value_type  observed_result
0  Cc1c(CN2CCN(C(=O)C(C)(C)O)CC2)sc2c(N3CCOCC3)nc(-c3cnc(N)nc3)nc12  solubility thermodynamic              600
1  Cc1c(CN2CCN(S(C)(=O)=O)CC2)sc2c(N3CCOCC3)nc(-c3cnc(N)nc3)nc12  solubility thermodynamic                9
2  Cc1c(CN2CCN(C(=O)CN)CC2)sc2c(N3CCOCC3)nc(-c3cnc(N)nc3)nc12  solubility thermodynamic              690
3  CS(=O)(=O)N1CCN(Cc2cc3nc(-c4cnc(N)nc4)nc(N4CCOCC4)c3s2)CC1  solubility thermodynamic               24
4  Cc1c(CN2CCN(C(=O)C(C)(C)N)CC2)sc2c(N3CCOCC3)nc(-c3cnc(N)nc3)nc12  solubility thermodynamic             1000

---

Collected pIC50 values appear next to each entry.
Target: Phosphatidylinositol 4,5-bisphosphate 3-kinase catalytic subunit beta isoform (Homo sapiens, UniProt P42338)
Sequence (P42338 whole entry, canonical isoform): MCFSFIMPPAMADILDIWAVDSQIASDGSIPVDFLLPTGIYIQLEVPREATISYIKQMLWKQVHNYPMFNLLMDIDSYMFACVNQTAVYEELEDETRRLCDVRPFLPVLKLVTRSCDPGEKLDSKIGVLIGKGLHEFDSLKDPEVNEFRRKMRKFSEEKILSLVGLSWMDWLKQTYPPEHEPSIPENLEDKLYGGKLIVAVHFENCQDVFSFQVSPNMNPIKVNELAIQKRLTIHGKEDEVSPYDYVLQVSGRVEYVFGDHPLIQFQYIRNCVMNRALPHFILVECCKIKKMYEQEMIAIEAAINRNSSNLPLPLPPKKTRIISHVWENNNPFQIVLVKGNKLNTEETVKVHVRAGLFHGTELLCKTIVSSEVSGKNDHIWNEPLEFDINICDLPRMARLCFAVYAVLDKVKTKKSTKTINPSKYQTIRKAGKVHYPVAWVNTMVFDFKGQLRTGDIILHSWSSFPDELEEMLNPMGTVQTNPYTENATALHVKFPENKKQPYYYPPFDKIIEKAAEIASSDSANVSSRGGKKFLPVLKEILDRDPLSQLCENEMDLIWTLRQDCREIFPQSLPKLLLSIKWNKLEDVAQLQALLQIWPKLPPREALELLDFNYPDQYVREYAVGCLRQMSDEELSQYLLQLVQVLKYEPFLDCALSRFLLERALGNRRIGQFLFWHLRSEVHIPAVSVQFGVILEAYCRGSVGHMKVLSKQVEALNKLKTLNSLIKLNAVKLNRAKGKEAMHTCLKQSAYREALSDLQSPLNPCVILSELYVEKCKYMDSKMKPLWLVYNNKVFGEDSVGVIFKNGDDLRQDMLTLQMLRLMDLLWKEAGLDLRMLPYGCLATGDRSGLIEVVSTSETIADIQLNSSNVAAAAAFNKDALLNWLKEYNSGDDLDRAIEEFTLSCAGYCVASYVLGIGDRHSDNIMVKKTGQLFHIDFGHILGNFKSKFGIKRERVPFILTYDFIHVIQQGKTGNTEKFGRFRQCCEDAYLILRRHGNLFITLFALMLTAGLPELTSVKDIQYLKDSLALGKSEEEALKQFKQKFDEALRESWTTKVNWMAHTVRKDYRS
pIC50: −log10 of the molar value.
Value Type: pIC50

>>> print(df.to_string())
                               input_smiles  value_type  observed_result
0  Cc1c(CN2CCN(C(=O)CO)CC2)sc2c(N3CCOCC3)nc(-c3cnc(N)nc3)nc12       pIC50             7.72
1  Cc1c(CN2CCN(C(=O)CN)CC2)sc2c(N3CCOCC3)nc(-c3cnc(N)nc3)nc12       pIC50             7.96
2  Cc1c(CN2CCN(C(=O)C(C)(C)N)CC2)sc2c(N3CCOCC3)nc(-c3cnc(N)nc3)nc12       pIC50             7.36
3  Cc1c(CN2CCN(C(=O)C(C)(C)O)CC2)sc2c(N3CCOCC3)nc(-c3cnc(N)nc3)nc12       pIC50             7.35
4  Cc1c(CN2CCN(C(=O)[C@H](C)N)CC2)sc2c(N3CCOCC3)nc(-c3cnc(N)nc3)nc12       pIC50             7.54

---

Target: Serine/threonine-protein kinase mTOR (Homo sapiens, UniProt P42345)
pKi: −log10 of the molar value.
Value Type: pKi

                               input_smiles  observed_result
0  Cc1c(CN2CCN(C(=O)C(C)(C)N)CC2)sc2c(N3CCOCC3)nc(-c3cnc(N)nc3)nc12             7.85

---

Target: Phosphatidylinositol 4,5-bisphosphate 3-kinase catalytic subunit gamma isoform (Homo sapiens, UniProt P48736)
Sequence (P48736 whole entry, canonical isoform): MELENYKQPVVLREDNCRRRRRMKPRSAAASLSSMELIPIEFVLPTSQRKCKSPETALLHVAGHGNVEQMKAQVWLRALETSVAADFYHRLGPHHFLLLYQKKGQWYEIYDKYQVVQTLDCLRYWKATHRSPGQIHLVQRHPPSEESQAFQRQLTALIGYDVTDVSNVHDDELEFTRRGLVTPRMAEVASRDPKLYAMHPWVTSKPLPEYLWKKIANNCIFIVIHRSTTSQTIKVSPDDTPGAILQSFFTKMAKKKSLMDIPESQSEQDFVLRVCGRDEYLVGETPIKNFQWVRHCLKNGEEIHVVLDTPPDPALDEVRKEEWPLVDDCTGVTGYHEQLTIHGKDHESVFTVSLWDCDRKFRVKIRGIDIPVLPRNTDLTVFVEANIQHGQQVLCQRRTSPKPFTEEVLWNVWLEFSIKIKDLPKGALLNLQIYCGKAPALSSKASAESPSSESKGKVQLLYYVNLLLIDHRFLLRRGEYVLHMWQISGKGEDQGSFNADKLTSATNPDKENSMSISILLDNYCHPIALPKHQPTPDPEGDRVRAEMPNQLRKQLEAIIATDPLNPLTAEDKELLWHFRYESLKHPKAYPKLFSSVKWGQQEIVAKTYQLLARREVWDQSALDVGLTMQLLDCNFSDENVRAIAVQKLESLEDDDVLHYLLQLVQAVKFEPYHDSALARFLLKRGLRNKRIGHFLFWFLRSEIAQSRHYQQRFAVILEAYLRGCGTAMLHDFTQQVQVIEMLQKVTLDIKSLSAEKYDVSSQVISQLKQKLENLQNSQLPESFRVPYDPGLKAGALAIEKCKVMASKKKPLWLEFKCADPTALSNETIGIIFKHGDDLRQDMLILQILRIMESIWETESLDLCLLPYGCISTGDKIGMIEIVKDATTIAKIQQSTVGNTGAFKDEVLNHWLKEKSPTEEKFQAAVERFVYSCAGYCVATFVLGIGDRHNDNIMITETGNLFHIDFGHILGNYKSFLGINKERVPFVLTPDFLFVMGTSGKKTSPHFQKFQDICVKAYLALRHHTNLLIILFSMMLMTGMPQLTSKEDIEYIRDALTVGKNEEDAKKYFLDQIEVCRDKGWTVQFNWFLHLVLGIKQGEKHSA
Collected IC50 values appear next to each entry.
Value Type: IC50

In [3]: df
Out[3]:
                               input_smiles  observed_result
0  Cc1c(CN2CCN(C(=O)CO)CC2)sc2c(N3CCOCC3)nc(-c3cnc(N)nc3)nc12            10 nM
1  Cc1c(CN2CCN(C(=O)C(C)(C)N)CC2)sc2c(N3CCOCC3)nc(-c3cnc(N)nc3)nc12            20 nM
2  Cc1c(CN2CCN(C(=O)C(C)(C)O)CC2)sc2c(N3CCOCC3)nc(-c3cnc(N)nc3)nc12            25 nM
3  Cc1c(CN2CCN(C(=O)CN)CC2)sc2c(N3CCOCC3)nc(-c3cnc(N)nc3)nc12            17 nM
4  Cc1c(CN2CCN(C(=O)[C@H](C)N)CC2)sc2c(N3CCOCC3)nc(-c3cnc(N)nc3)nc12            37 nM

---

Biological target: Phosphatidylinositol 4,5-bisphosphate 3-kinase catalytic subunit alpha isoform (Homo sapiens)
Value Type: IC50

In [3]: df
Out[3]:
                               input_smiles  observed_result
0  Cc1c(CN2CCN(C(=O)CN)CC2)sc2c(N3CCOCC3)nc(-c3cnc(N)nc3)nc12           0.7 nM

---

Molecular target: Phosphatidylinositol 4,5-bisphosphate 3-kinase catalytic subunit alpha isoform (Homo sapiens, UniProt P42336)
Sequence (P42336 whole entry, canonical isoform): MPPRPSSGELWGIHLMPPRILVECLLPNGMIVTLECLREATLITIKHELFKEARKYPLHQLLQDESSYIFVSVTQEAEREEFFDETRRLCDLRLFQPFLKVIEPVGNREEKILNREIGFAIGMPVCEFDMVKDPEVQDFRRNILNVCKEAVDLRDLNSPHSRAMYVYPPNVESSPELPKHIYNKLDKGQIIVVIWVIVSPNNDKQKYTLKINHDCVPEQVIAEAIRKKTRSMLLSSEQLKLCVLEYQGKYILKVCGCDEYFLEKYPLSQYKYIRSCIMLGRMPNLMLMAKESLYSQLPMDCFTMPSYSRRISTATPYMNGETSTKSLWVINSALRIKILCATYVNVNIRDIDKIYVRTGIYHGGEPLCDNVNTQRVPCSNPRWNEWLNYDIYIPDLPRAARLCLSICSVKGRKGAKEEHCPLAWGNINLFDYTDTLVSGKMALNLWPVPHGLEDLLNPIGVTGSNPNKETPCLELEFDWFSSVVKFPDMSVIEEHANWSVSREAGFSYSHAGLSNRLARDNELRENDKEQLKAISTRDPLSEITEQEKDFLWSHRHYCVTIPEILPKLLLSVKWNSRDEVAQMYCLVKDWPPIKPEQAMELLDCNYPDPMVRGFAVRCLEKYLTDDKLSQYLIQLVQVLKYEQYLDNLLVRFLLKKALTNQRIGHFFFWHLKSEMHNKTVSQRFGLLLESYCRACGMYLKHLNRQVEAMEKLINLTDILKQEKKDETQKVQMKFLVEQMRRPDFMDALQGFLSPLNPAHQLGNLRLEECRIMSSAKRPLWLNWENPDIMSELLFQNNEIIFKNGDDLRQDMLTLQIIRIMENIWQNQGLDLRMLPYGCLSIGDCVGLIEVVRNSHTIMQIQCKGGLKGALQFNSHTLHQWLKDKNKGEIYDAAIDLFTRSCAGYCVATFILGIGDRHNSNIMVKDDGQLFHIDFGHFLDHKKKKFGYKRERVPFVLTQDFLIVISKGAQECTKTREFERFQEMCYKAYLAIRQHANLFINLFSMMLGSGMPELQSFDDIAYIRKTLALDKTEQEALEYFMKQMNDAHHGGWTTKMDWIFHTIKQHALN
pKi: −log10 of the molar value.
Value Type: pKi

>>> df
                               input_smiles  value_type  observed_result
0  Cc1c(CN2CCN(C(=O)CO)CC2)sc2c(N3CCOCC3)nc(-c3cnc(N)nc3)nc12         pKi             8.55

---

Experiment: in vivo
Details: Sprague-Dawley, rat, plasma, iv, 1 mg/kg
Value Type: clearance (mL/min/kg)

In [3]: df
Out[3]:
                               input_smiles  observed_result
0  Cc1c(CN2CCN(C(=O)C(C)(C)O)CC2)sc2c(N3CCOCC3)nc(-c3cnc(N)nc3)nc12.O=C(O)C(F)(F)F               24
1  Cc1c(CN2CCN(C(=O)CN)CC2)sc2c(N3CCOCC3)nc(-c3cnc(N)nc3)nc12.O=C(O)C(F)(F)F              140
2  Cc1c(CN2CCN(S(C)(=O)=O)CC2)sc2c(N3CCOCC3)nc(-c3cnc(N)nc3)nc12.O=C(O)C(F)(F)F               13
